molecular target: HLA-B*57:01; test: IEDB peptide-MHC binding, purified MHC/competitive/fluorescence; filed as Kd, often an IC50 or EC50 that approximates it; bounds were set here for any values at or beyond the usual limits of such assays; details: source organism: Campylobacter jejuni subsp. jejuni NCTC 11168 = ATCC 700819
recorded_endpoint: Kd

So for AELIDSFTW , the logged Kd turned out to be ≥ 20 µM

###

target: HLA-B*35:01; assay: IEDB peptide-MHC binding, purified MHC/competitive/radioactivity; filed as Kd, often an IC50 or EC50 that approximates it; bounds were set here for any values at or beyond the usual limits of such assays; conditions: source organism: Lassa virus Josiah
pKd: −log10 of the molar value.
recorded_endpoint: pKd

So for WPYIASRTSI , the logged pKd turned out to be ≤ 4.14

###

biological target: HLA-A*02:11; assay: IEDB peptide-MHC binding, purified MHC/direct/fluorescence; filed as Kd, often an IC50 or EC50 that approximates it; bounds were set here for any values at or beyond the usual limits of such assays; details: source organism: Cryptosporidium parvum Iowa II
pKd: −log10 of the molar value.
Listed here: items and their measured pKd.

So for DHIPIINTL , the logged pKd turned out to be ≤ 4.70

So for ILTRLALFF , the logged pKd turned out to be ≤ 4.70

###

biological target: HLA-B*83:01; test: IEDB peptide-MHC binding, purified MHC/competitive/fluorescence; filed as Kd, often an IC50 or EC50 that approximates it; bounds were set here for any values at or beyond the usual limits of such assays; details: source organism: Mycobacterium tuberculosis C
Listed here: items and their measured Kd.

So for SARRRHLVF , the logged Kd turned out to be ≥ 5 µM

Further cases:
So for ALFDRPAFK , the logged Kd turned out to be ≥ 5 µM

###

target: HLA-B*40:01; assay: IEDB peptide-MHC binding, purified MHC/direct/fluorescence; filed as Kd, often an IC50 or EC50 that approximates it; bounds were set here for any values at or beyond the usual limits of such assays; details: source organism: Camelpox virus M-96
recorded_endpoint: Kd (nM)
Give the value in nM but do not write nM after it.

So for LEYGANYFL , the logged Kd turned out to be 3.3

###

Listed here: items and their measured IC50.
molecular target: HLA-A*24:02; experiment: IEDB peptide-MHC binding, purified MHC/competitive/fluorescence; bounds were set here for any values at or beyond the usual limits of such assays; settings: source organism: Vaccinia virus Copenhagen

I looked up SQYANCSSI and its IC50 for HLA-A*24:02 was ≥ 82.7 µM

Next, consider the following sequence.
I looked up KLIIDREVV and its IC50 for HLA-A*24:02 was ≥ 137 µM

###

biological target: HLA-B*27:03; test: IEDB peptide-MHC binding, purified MHC/competitive/fluorescence; filed as Kd, often an IC50 or EC50 that approximates it; bounds were set here for any values at or beyond the usual limits of such assays; details: source organism: Entamoeba histolytica HM-1:IMSS
recorded_endpoint: Kd

So for KTRMEDYYL , the logged Kd turned out to be ≥ 20 µM

###

target: HLA-B*53:01; test: IEDB peptide-MHC binding, purified MHC/competitive/radioactivity; filed as Kd, often an IC50 or EC50 that approximates it; bounds were set here for any values at or beyond the usual limits of such assays; conditions: source organism: Dengue virus 3 Martinique/1243/1999
recorded_endpoint: pKd
To interpret pKd, take it as minus log10 of a concentration measured in moles per litre.

I looked up FPYSIPATL and its pKd for HLA-B*53:01 was 8.67
